# SUBJECT_OF_TEST: Myt1 kinase (CDK1 Thr14 phosphorylation in DAOY medulloblastoma cells) (Homo sapiens, UniProt Q99640)
# Construct: pCDK1 Thr14 AlphaLISA read-out
# Sequence (Q99640 1-499): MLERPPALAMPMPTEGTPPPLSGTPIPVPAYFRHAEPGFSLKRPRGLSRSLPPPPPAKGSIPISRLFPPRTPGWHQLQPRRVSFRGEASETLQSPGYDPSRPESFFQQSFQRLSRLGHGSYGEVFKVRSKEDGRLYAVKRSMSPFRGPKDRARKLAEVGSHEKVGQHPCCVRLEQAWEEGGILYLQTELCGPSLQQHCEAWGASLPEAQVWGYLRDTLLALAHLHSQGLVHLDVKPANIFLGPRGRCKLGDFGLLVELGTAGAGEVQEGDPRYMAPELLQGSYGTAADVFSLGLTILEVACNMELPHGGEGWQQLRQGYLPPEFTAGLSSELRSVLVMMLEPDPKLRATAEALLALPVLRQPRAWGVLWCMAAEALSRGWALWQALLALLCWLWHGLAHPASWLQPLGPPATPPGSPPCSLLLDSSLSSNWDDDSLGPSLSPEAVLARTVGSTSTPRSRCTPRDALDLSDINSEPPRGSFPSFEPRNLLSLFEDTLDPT
# TEST: AlphaLISA assay, Myt1 kinase target engagement (phospho-CDK1 Thr14) in DAOY cells
# Format: cell-based
# MEASUREMENT_SETUP: 4 h treatment, read-out: CDK1 Thr14 Phosphorylation EC50
OBSERVED_PROPERTY: EC50

Past entries and their recorded results:
{"columns": ["STRUCTURE_SMILES", "EC50"],
 "data": [
  ["C=CCn1c(=O)c2cnc(Nc3ccc4c(cnn4C(C)C)c3)nc2n1-c1cccc(OC2CCN(C)CC2)n1", "< 0.2 µM"],
  ["C=CCn1c(=O)c2cnc(Nc3cccnc3)nc2n1-c1cccc(OC2CCNCC2)n1", "> 1 µM"],
  ["C=CCn1c(=O)c2cnc(Nc3ccc4cnoc4c3)nc2n1-c1cccc(OC2CCN(C)CC2)n1", "> 1 µM"]
]}

Could you now look at the following compound, please?
Which EC50 is listed for "CN1CCC(Oc2cccc(-n3c4nc(Nc5ccc6c(cnn6C)c5)ncc4c(=O)n3C)n2)CC1" ?
0.2 to 0.5 µM
